Provide the reported Cas9 with SSAP activity (normalized) of each item.
- Tested on: gene editing with Cas9
- protocolDescription: Screen of 322 new SSAP proteins, gene editing activity with Cas9 (Table 5)
- Format: cell-based
- assayContext: normalized
Answers are plain numbers.

Would you mind giving Cas9 with SSAP activity (normalized) for every molecule in the list below?
1. SSAP_132: SEQ ID NO: 301; Enterocloster clostridioformis (protein, listed as Enterocloster clostridioformis) GIDVKHELEKRAAGQDKPVKLTRNMTIADMVKALEPEIKRALPAILTPERFTRMALSAVNNTPELANCTPMSFIAALMNAAQLGLEPNTPLGQAYLIPYKNKGTLECQFQLGYKGLIDLAYRTGQIQIIQAQAVREFDYFEYQYGLDSRLVHKPGNEERGQITFIYGLFKLSNGGYGFEVSNKAEMDAFAAKYSKSFGSKYSPWTEDYESMAKKTVIKRALKYAPVSSDFQKALSLDETVKSEIAVDMSEIRNDCIPADMGTEAA
2. SSAP_97: SEQ ID NO: 266; Gilliamella apicola (protein, listed as Gilliamella apicola) SEQNQPPIAKSDLEKTQLTNQDKKPATLAELVNSPKIKNQLAMALPKHMNPDRMARIVTTEIRKTPALADSNIQSFLGAVVQCSQLGLEPGGALGHAYLLPFGNGKAKDGKSNVQLIIGYRGMIDLARRSGQIISISARTVREGDDFHYEYGLNEDLKHTPKADESAPITYVYAVARLKDGGSQFEVMTFNQIESVRKQSKAGDKGPWITHWEEMAKKTVIRRLFKYLPVSIEIQQAVILDEKAEAGISQDNEMILDADFSVVEA

### Response
−1.345
−1.267
